The reported numbers originate from patent US11427553B2.

# EXPERIMENTAL_TARGET: human full length PDE3A (Homo sapiens (Human), UniProt Q14432)
# Sequence (Q14432 whole entry): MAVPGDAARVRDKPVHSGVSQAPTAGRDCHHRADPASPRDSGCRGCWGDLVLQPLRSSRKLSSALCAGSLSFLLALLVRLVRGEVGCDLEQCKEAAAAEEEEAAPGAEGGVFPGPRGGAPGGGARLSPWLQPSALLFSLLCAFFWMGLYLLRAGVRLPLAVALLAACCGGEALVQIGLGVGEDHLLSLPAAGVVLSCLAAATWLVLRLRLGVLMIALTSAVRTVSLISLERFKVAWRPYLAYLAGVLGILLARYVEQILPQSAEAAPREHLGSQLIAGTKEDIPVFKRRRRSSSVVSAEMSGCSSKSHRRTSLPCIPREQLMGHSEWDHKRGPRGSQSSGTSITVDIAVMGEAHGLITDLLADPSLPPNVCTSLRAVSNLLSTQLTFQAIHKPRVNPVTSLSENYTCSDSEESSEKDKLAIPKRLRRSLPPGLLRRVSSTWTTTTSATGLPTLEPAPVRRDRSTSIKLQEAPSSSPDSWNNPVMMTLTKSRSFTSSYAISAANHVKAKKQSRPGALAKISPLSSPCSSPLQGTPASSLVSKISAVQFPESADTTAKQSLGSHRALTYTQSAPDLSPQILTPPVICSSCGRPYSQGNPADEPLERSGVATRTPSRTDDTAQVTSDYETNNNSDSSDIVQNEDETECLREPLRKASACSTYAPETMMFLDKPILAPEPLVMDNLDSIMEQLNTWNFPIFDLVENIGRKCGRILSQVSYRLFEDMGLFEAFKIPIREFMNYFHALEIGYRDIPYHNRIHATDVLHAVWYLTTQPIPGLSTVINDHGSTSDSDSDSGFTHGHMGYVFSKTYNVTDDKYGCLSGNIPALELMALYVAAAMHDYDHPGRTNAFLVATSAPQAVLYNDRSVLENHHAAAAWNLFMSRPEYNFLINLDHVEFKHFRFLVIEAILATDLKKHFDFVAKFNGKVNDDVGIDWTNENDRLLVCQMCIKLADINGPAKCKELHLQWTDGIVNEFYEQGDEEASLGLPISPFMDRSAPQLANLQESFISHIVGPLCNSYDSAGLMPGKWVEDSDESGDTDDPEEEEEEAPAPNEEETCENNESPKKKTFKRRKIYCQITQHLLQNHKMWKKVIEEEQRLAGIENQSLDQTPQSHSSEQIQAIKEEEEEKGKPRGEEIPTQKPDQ
Checkbox rule: IC50 lower than 0.3 µM = Condition met; IC50 not lower than 0.3 µM = Condition not met.

COMPOUND: COC(C)(C)CNc1ccc(C2=NNC(=O)OC2)cc1C(F)(F)F
LABEL_VALUE: Condition met
//
COMPOUND: O=C1NN=C(c2ccc(Cl)c(OC(F)(F)F)c2)CO1 [Intermediate 73]
LABEL_VALUE: Condition not met
//
COMPOUND: Cc1n[nH]c(C)c1-c1ccc(C2=NNC(=O)OC2)cc1C(F)(F)F
LABEL_VALUE: Condition met
//
COMPOUND: C[C@@H]1OC(=O)NN=C1c1ccc(-c2cccc(O)c2)c(C(F)(F)F)c1
LABEL_VALUE: Condition met
//
COMPOUND: Cc1ccc(-c2ccc(C3=NNC(=O)OC3)cc2F)cc1N
LABEL_VALUE: Condition met
//
COMPOUND: Nc1ccc(-c2ccc(C3=NNC(=O)OC3)cc2F)cc1
LABEL_VALUE: Condition met
//
COMPOUND: O=C1NN=C(c2ccc(-c3ccc(O)cc3)c(F)c2)CO1
LABEL_VALUE: Condition met
//
COMPOUND: CNc1ccc(-c2ccc(C3=NNC(=O)OC3)cc2C(F)(F)F)cc1
LABEL_VALUE: Condition met

With those in mind, consider the next compound.
## Task Input O=C1NN=C(c2ccc(Cl)c(C(F)(F)F)c2)CO1 [Intermediate 64] ; condition: IC50 strictly below 0.3 µM. Does it hold?
## Result Condition not met

* * *

# System: SK-MEL-3 cells
# PROCEDURE_SUMMARY: Assay 1 cell proliferation measurement (CTG, 72 h), SK-MEL-3
# Assay type: cell-based, human
# CONDITIONS_USED: Assay 1, 72 h, Cell Titer Glo; read-out: SK-MEL-3 IC50 [nM] (melanoma)
ASSAY_READOUT: IC50
Numeric answer plus unit only.

Reported IC50 ( C[C@H]1C[C@H](C)N1c1ccc(C2=NNC(=O)OC2)cc1C(F)(F)F (relative stereo) ) = 7 nM

* * *

# PROCEDURE_SUMMARY: Assay 6 in vitro metabolic stability in cryopreserved human hepatocytes (CL, Fmax)
# Assay type: in vitro ADME
# CONDITIONS_USED: maximal oral bioavailability calculated from half-life in cryopreserved human hepatocytes, 1 μM test compound
Label scheme, based on Fmax: low class = under 50%, middle class = from 50% up to 80%, high class = 80% and over

See these solved cases before continuing.
COMPOUND: C[C@@H]1OC(=O)NN=C1c1cc(Cl)c(N2CCOCC2)c(C(F)(F)F)c1 [Example 121]
LABEL_VALUE: high class

COMPOUND: Cc1cc(C2=NNC(=O)OC2)ccc1-c1ccc(F)cc1 [Example 7]
LABEL_VALUE: middle class

COMPOUND: O=C1NN=C(c2ccc(-c3ccccc3C(F)F)c(F)c2)CO1 [Example 161]
LABEL_VALUE: middle class

COMPOUND: O=C1NN=C(c2ccc(-c3cnn(C(F)F)c3)c(C(F)F)c2)CO1 [Example 195]
LABEL_VALUE: high class

COMPOUND: O=C1NN=C(c2ccc(-c3ccc(F)cc3)c(C(F)(F)F)c2)CO1 [Example 3]
LABEL_VALUE: middle class

COMPOUND: COC/C=C/c1ccc(C2=NNC(=O)OC2)cc1C(F)(F)F [Example 140]
LABEL_VALUE: middle class

COMPOUND: Cc1cc(F)ccc1-c1ccc(C2=NNC(=O)OC2)cc1C [Example 9]
LABEL_VALUE: high class

COMPOUND: O=C1NN=C(c2ccc(-c3ccc(Cl)cc3)c(OC(F)(F)F)c2)CO1 [Example 71]
LABEL_VALUE: high class

## Task Hi there! Could you help me figure out the category for C[C@@H]1OC(=O)NN=C1c1ccc(-n2ccc(C(F)(F)F)n2)c(C(F)(F)F)c1 [Example 265] please?
## Result middle class

## Task Hi there! Could you help me figure out the category for O=C1NN=C(c2ccc(-c3ccc(Cl)cc3)c(C(F)(F)F)c2)CO1 [Example 31] please?
## Result middle class

* * *

# Test system: DBTRG-05-MG cells
# PROCEDURE_SUMMARY: Assay 1 cell proliferation measurement, DBTRG-05-MG
# Type: cell-based
# CONDITIONS_USED: Homo sapiens, Glioblastoma, read-out: Anti-proliferation IC50 [nM] DBTRG-05-MG
IC50 values by entry
The answer is to be given in nM; state only the numeric part.

In the examples that follow, each entry is paired with its recorded IC50.
MOLECULE: CC(C)(C)CCc1ccc(C2=NNC(=O)OC2)cc1C(F)(F)F [Example 269]
IC50, nM: 50
--
MOLECULE: O=C1NN=C(c2ccc(-c3ccc(C(F)F)cc3)c(F)c2)CO1 [Example 92]
IC50, nM: 18
--
MOLECULE: O=C1NN=C(c2ccc(-c3ccc(Cl)cc3)c(C(F)(F)F)c2)CO1 [Example 31]
IC50, nM: 56

Reported IC50 ( O=C1NN=C(c2ccc(-c3cnn(C(F)F)c3)c(C(F)(F)F)c2)CO1 [Example 146] ) = 14

Reported IC50 ( COCCCc1ccc(C2=NNC(=O)OC2)cc1C(F)(F)F [Example 267] ) = 35

* * *

# EXPERIMENTAL_TARGET: human full length PDE3B (Homo sapiens (Human))
Checkbox rule: IC50 lower than 100 nM = Y; IC50 not lower than 100 nM = N.

See these solved cases before continuing.
MOLECULE: C[C@@H]1OC(=O)NN=C1c1ccc(-c2ccc(F)cc2F)c(C(F)(F)F)c1
EXPERIMENTAL_TARGET: human full length PDE3B (Homo sapiens (Human))
LABEL_VALUE: N

MOLECULE: O=C1NN=C(c2ccc(Cl)c(C(F)(F)F)c2)CO1 [Intermediate 64]
EXPERIMENTAL_TARGET: human full length PDE3B (Homo sapiens (Human))
LABEL_VALUE: N

MOLECULE: Nc1ccc(-c2ccc(C3=NNC(=O)OC3)cc2C(F)(F)F)cn1
EXPERIMENTAL_TARGET: human full length PDE3B (Homo sapiens (Human))
LABEL_VALUE: Y

MOLECULE: O=C1NN=C(c2ccc(N3CCOCC3)c(F)c2)CO1
EXPERIMENTAL_TARGET: human full length PDE3B (Homo sapiens (Human))
LABEL_VALUE: N

MOLECULE: Cc1cc(C2=NNC(=O)OC2)ccc1Cl [Intermediate 76]
EXPERIMENTAL_TARGET: human full length PDE3B (Homo sapiens (Human))
LABEL_VALUE: N

MOLECULE: O=C1NN=C(c2ccc(-c3cccnc3)c(F)c2)CO1
EXPERIMENTAL_TARGET: human full length PDE3B (Homo sapiens (Human))
LABEL_VALUE: Y

MOLECULE: Cc1cc(F)ccc1-c1ccc(C2=NNC(=O)OC2)cc1C
EXPERIMENTAL_TARGET: human full length PDE3B (Homo sapiens (Human))
LABEL_VALUE: N

MOLECULE: O=C1NN=C(c2ccc(-c3cccc(F)c3F)c(C(F)(F)F)c2)CO1
EXPERIMENTAL_TARGET: human full length PDE3B (Homo sapiens (Human))
LABEL_VALUE: N

With those in mind, consider the next molecule.
## Task Input O=C1NN=C(c2ccc(C3=CCNCC3)c(C(F)(F)F)c2)CO1 ; condition: IC50 strictly below 100 nM. Does it hold?
## Result Y

* * *

# EXPERIMENTAL_TARGET: human full length PDE3B (Homo sapiens (Human), UniProt Q13370)
# Sequence (Q13370 whole entry): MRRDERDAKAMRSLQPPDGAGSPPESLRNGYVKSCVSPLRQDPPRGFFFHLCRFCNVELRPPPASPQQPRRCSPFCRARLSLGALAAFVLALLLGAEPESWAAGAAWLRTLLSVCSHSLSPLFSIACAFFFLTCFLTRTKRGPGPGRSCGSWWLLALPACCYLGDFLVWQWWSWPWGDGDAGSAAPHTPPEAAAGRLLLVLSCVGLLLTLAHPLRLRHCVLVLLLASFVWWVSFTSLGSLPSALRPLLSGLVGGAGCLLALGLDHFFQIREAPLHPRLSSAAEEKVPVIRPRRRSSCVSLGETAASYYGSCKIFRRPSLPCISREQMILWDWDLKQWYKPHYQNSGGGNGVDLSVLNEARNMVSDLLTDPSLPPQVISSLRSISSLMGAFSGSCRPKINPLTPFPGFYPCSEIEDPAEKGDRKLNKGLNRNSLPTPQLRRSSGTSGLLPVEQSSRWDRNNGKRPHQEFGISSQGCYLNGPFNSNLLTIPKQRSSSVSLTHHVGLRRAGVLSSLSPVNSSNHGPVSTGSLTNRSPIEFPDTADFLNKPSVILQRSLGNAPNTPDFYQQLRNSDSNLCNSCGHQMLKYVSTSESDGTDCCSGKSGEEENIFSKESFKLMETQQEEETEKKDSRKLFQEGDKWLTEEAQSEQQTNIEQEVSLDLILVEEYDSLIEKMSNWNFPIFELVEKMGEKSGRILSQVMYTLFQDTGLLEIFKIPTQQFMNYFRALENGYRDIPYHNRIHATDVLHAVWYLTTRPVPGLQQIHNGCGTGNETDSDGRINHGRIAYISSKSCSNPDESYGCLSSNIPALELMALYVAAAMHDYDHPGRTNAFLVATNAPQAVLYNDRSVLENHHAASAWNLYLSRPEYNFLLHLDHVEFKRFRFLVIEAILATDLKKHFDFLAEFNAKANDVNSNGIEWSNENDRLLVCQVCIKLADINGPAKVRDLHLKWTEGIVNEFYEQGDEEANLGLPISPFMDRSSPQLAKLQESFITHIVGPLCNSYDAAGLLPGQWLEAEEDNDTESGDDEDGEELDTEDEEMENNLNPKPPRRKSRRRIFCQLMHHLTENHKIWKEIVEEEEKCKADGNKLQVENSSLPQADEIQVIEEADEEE
Checkbox rule: IC50 lower than 80 nM = rule met; IC50 not lower than 80 nM = rule not met.

COMPOUND: Cc1ccc(-c2ccc(C3=NNC(=O)OC3)cc2F)cc1F
EXPERIMENTAL_TARGET: human full length PDE3B (Homo sapiens (Human), UniProt Q13370)
LABEL_VALUE: rule not met
--
COMPOUND: N#CCCCNc1ccc(C2=NNC(=O)OC2)cc1C(F)(F)F
EXPERIMENTAL_TARGET: human full length PDE3B (Homo sapiens (Human), UniProt Q13370)
LABEL_VALUE: rule met
--
COMPOUND: Cc1cc(-c2ccc(C3=NNC(=O)OC3)cc2F)ccc1F
EXPERIMENTAL_TARGET: human full length PDE3B (Homo sapiens (Human), UniProt Q13370)
LABEL_VALUE: rule not met
--
COMPOUND: Nc1ccc(-c2ccc(C3=NNC(=O)OC3)cc2F)cc1
EXPERIMENTAL_TARGET: human full length PDE3B (Homo sapiens (Human), UniProt Q13370)
LABEL_VALUE: rule not met
--
COMPOUND: Cc1cccc(-c2ccc(C3=NNC(=O)OC3)cc2F)c1
EXPERIMENTAL_TARGET: human full length PDE3B (Homo sapiens (Human), UniProt Q13370)
LABEL_VALUE: rule not met
--
COMPOUND: Cc1cc(C2=NNC(=O)OC2)ccc1-c1cccc(F)c1
EXPERIMENTAL_TARGET: human full length PDE3B (Homo sapiens (Human), UniProt Q13370)
LABEL_VALUE: rule not met

## Task Input O=C1NN=C(c2ccc(Cl)c(OC(F)(F)F)c2)CO1 [Intermediate 73] ; condition: IC50 strictly below 80 nM. Does it hold?
## Result rule not met

## Task Input Nc1ccc(-c2ccc(C3=NNC(=O)OC3)cc2C(F)(F)F)cc1F ; condition: IC50 strictly below 80 nM. Does it hold?
## Result rule met

## Task Input Cc1n[nH]c2cc(-c3ccc(C4=NNC(=O)OC4)cc3C(F)(F)F)ccc12 ; condition: IC50 strictly below 80 nM. Does it hold?
## Result rule met
